Ref: patent US20190218508A1

# Tested on: erythrocytes
# Test Description: Visual separation (sedimentation) of erythrocyte and nucleated cell fractions of blood samples
# Format: cell-based
# Conditions Used: Example 4; whole blood 1:1 with PBS composition of 2.5% Dextran 70 plus substance at 1-5%; 30 minutes room temperature
Readout Label: separation of whole blood

Below: 4 molecules and their reported separation of whole blood.
CC[C@H](C)[C@H](N)C(=O)O: almost total inactivity
NCCC(=O)O: did very little
O=C(O)[C@@H]1CCCN1: did very little
NCC(=O)O: almost total inactivity

Then there is this molecule:
// CC(C)C[C@H](N)C(=O)O : separation of whole blood value = almost total inactivity
